Hi there, I'd appreciate the recorded % inhibition for every entry that follows.
Test system: human PKK mRNA
Test: Antisense inhibition of human PKK mRNA in HepaRG cells, 1,000 nM, MOE/deoxy/cEt oligonucleotides (Example 3)
Format: cell-based
Conditions: Table 21 experiment; HepaRG cells, electroporation with 1,000 nM antisense oligonucleotide, approx. 24 hours; PKK mRNA by RT-PCR (RTS3454), relative to untreated control cells
Strand notation (5' to 3'): a small letter for the sugar, then the base; units joined by * are phosphorothioate-linked, units joined directly phosphodiester-linked; [ ] holds rarer units or linkages, { } end groups; capitals alone tell only the bases. e = 2'-O-(2-methoxyethyl) (MOE); k = constrained ethyl (cEt); [5mC] = 5-methylcytosine; d = 2'-deoxy (DNA)
Answers are plain numbers, in %.

Known % inhibition results, listed for orientation:
Query :: Missing value: % inhibition, human PKK mRNA, entry 547765 (antisense eA*eG*kG*dT*dG*dA*dG*dT*d[5mC]*dT*d[5mC]*dT*dT*kG*kT*e[5mC]) [compound 547765] . Fill in?
Result :: 20

Query :: Would you mind doing 547779 (antisense eA*eT*kT*dG*d[5mC]*dT*dT*d[5mC]*dT*dT*dG*dG*dA*kG*kG*eT) [compound 547779] as well?
Result :: 41

Query :: Would you mind doing 547787 (antisense eA*eA*kG*dT*dT*dG*d[5mC]*dT*dT*dG*d[5mC]*dT*dT*kG*kA*eA) [compound 547787] as well?
Result :: 22

Query :: Would you mind doing 547811 (eA*e[5mC]*k[5mC]*dT*d[5mC]*dA*dT*d[5mC]*dT*dG*dG*d[5mC]*dA*kG*kT*eA; antisense) [compound 547811] as well?
Result :: 49

Query :: Would you mind doing 547771 (antisense e[5mC]*eT*kT*dG*dG*dA*dG*dG*dT*dG*dA*dG*dT*k[5mC]*kT*e[5mC]) [compound 547771] as well?
Result :: 60

Query :: Would you mind doing 547835 (e[5mC]*e[5mC]*kA*dG*dA*dA*dA*d[5mC]*dT*dG*d[5mC]*dA*d[5mC]*k[5mC]*kT*eG; antisense) [compound 547835] as well?
Result :: 81

Return reported % inhibition values for all items listed beneath this line.
1. 547790 (antisense eT*eG*kA*dA*dA*dT*dA*dA*dG*dT*dT*dG*d[5mC]*kT*kT*eG) [compound 547790]
2. 547831 (e[5mC]*eT*kG*d[5mC]*dA*d[5mC]*d[5mC]*dT*dG*dT*dT*d[5mC]*dG*kA*kT*eG; antisense) [compound 547831]
3. 547796 (antisense eA*eT*k[5mC]*d[5mC]*d[5mC]*d[5mC]*dA*d[5mC]*d[5mC]*dT*d[5mC]*dT*dG*kA*kA*eG) [compound 547796]
4. 547800 (eA*e[5mC]*kA*dT*dG*dG*dA*dA*dG*d[5mC]*dT*dA*d[5mC]*kA*kT*e[5mC]; antisense) [compound 547800]
5. 547753 (eA*eT*kG*dA*dA*d[5mC]*dG*dG*dT*d[5mC]*dT*dT*d[5mC]*kA*kA*eG; antisense) [compound 547753]

Result ::
[23, 49, 35, 20, 3]

Where do these numbers come from? They come from patent US11840686B2.
